assay-protocol: FBMN analysis of short peptides in small intestine contents and serum after oral DHG
recorded-conditions: small intestine contents, 30 min after oral DHG, C57 mice; FBMN feature intensity, peptides smaller than 690 Da
Peptide text beside a SMILES is read from it.
value-type: Peptide signal (feature intensity) in the small intestine, 30 min
Answer as a number with no unit attached.

Below, each entry is followed by its recorded Peptide signal (feature intensity) in the small intestine, 30 min result.
N[C@@H](Cc1c[nH]c2ccccc12)C(=O)NCC(=O)O [Trp-gly] (H-Trp-Gly-OH) : 0.00E+00
CC(C)[C@H](N)C(=O)N[C@H](C(=O)O)C(C)C [Val-Val] (H-Val-Val-OH) : 5.52E+06
CC(C)C[C@H](NC(=O)[C@@H](N)Cc1ccccc1)C(=O)N[C@@H](CCCCN)C(=O)O [Phe-Leu-Lys] (H-Phe-Leu-Lys-OH) : 0.00E+00

Given CSCC[C@H](N)C(=O)O [Methionine] , state its recorded Peptide signal (feature intensity) in the small intestine, 30 min.
0.00E+00
